These measurements were taken from patent US20210386729A1.

Experiment: Single oral dose plasma pharmacokinetics in healthy subjects
Format: in vivo, human
Conditions: human, 100 ug; healthy subjects, single oral dose 100 μg, fasted, plasma; mean
measured-endpoint: Cmax (ng/mL)

1. O=C(O)c1cc(F)c2nc(N3C4CC[C@H]3CC(OCc3c(-c5ccccc5OC(F)(F)F)noc3C3CC3)C4)sc2c1 (stereo partly shown) [Compound A] | 1.73

----------
Assay: Single oral dose plasma pharmacokinetics in healthy subjects
Type: in vivo, human
Settings: human, 10 ug; healthy subjects, single oral dose 10 μg, fasted, plasma; mean; read-out: T1/2 (converted)
measured-endpoint: half-life

1. O=C(O)c1cc(F)c2nc(N3C4CC[C@H]3CC(OCc3c(-c5ccccc5OC(F)(F)F)noc3C3CC3)C4)sc2c1 (stereo partly shown) | 894 min

----------
Assay: Single oral dose plasma pharmacokinetics in healthy subjects
Type: in vivo, human
Settings: human, 30 ug; healthy subjects, single oral dose 30 μg, fasted, plasma; median; read-out: Tmax
measured-endpoint: Tmax (h)

1) O=C(O)c1cc(F)c2nc(N3C4CC[C@H]3CC(OCc3c(-c5ccccc5OC(F)(F)F)noc3C3CC3)C4)sc2c1 (stereo partly shown) | 4

----------
Experiment: Single oral dose plasma pharmacokinetics in healthy subjects
Assay type: in vivo, human
Conditions: human, 100 ug; healthy subjects, single oral dose 100 μg, fasted, plasma; median; read-out: Tmax
measured-endpoint: Tmax

1) O=C(O)c1cc(F)c2nc(N3C4CC[C@H]3CC(OCc3c(-c5ccccc5OC(F)(F)F)noc3C3CC3)C4)sc2c1 (stereo partly shown) | 4 h

----------
Assay: Multiple oral dose plasma pharmacokinetics in healthy subjects
Assay type: in vivo, human
Details: human, plasma, oral, 100 ug, healthy subjects, 100 μg qd, Day 13, plasma; mean; read-out: Cmax
measured-endpoint: Cmax (ng/mL)

1. O=C(O)c1cc(F)c2nc(N3C4CC[C@H]3CC(OCc3c(-c5ccccc5OC(F)(F)F)noc3C3CC3)C4)sc2c1 (stereo partly shown) | 3.47

----------
Assay: Multiple oral dose plasma pharmacokinetics in healthy subjects
Format: in vivo, human
Details: human, plasma, oral, 100 ug, healthy subjects, 100 μg qd, Day 1, plasma; mean; read-out: AUCtau
measured-endpoint: AUC

1. O=C(O)c1cc(F)c2nc(N3C4CC[C@H]3CC(OCc3c(-c5ccccc5OC(F)(F)F)noc3C3CC3)C4)sc2c1 (stereo partly shown) | 30.3 ng·h/mL

----------
Test: Single oral dose plasma pharmacokinetics in healthy subjects
Type: in vivo, human
Conditions: human, 3000 ug; healthy subjects, single oral dose 3000 μg, fasted, plasma; median; read-out: Tmax
measured-endpoint: Tmax (h)

1. O=C(O)c1cc(F)c2nc(N3C4CC[C@H]3CC(OCc3c(-c5ccccc5OC(F)(F)F)noc3C3CC3)C4)sc2c1 (stereo partly shown) [Compound A] | 4

----------
Test: Multiple oral dose plasma pharmacokinetics in healthy subjects
Format: in vivo, human
Conditions: human, plasma, oral, 100 ug, healthy subjects, 100 μg qd, Day 13, plasma; median; read-out: Tmax
measured-endpoint: Tmax

1) O=C(O)c1cc(F)c2nc(N3C4CC[C@H]3CC(OCc3c(-c5ccccc5OC(F)(F)F)noc3C3CC3)C4)sc2c1 (stereo partly shown) [Compound A] | 4 h

----------
Assay: Single oral dose plasma pharmacokinetics in healthy subjects
Type: in vivo, human
Conditions: human, 300 ug; healthy subjects, single oral dose 300 μg, fasted, plasma; mean
measured-endpoint: Cmax (ng/mL)

1) O=C(O)c1cc(F)c2nc(N3C4CC[C@H]3CC(OCc3c(-c5ccccc5OC(F)(F)F)noc3C3CC3)C4)sc2c1 (stereo partly shown) | 6.41
